# Tested on: Human immunodeficiency virus 1
# test_description: Antiviral activity against HIV1 3B in human MT4 cells assessed as inhibition of viral-induced cytopathic effect by MTT method
# Assay type: functional, organism-based
# measurement_setup: Human immunodeficiency virus 1, 3B
measured_parameter: log10 of EC50 (log10 of the value in nM)
Parameter value (number): base-10 log of EC50 in nM.

Sample answers from the record:
[[record]]
given_smiles = "CC(=O)N[C@H](CS(=O)(=O)c1cccc2ccccc12)C(=O)N[C@@H](Cc1ccccc1)[C@H](O)C(=O)N1CSC(C)(C)[C@H]1C(=O)NCc1ccccc1C"
endpoint_result = 1.60

[[record]]
given_smiles = "COc1ccc(CS(=O)(=O)C[C@@H](NS(C)(=O)=O)C(=O)N[C@@H](Cc2ccccc2)[C@H](O)C(=O)N2CSC(C)(C)[C@H]2C(=O)NCc2ccccc2C)cc1"
endpoint_result = 2.31

[[record]]
given_smiles = "CC(=O)N[C@H](CSc1cccc2ccccc12)C(=O)N[C@@H](Cc1ccccc1)[C@H](O)C(=O)N1CSC(C)(C)[C@H]1C(=O)NCc1ccccc1C"
endpoint_result = 1.23

[[record]]
given_smiles = "Cc1ccccc1CNC(=O)[C@H]1N(C(=O)[C@@H](O)[C@H](Cc2ccccc2)NC(=O)[C@@H](COCc2ccccc2)NS(C)(=O)=O)CSC1(C)C"
endpoint_result = 1.30

[[record]]
given_smiles = "CC(=O)N[C@H](CSc1ccc2ccccc2c1)C(=O)N[C@@H](Cc1ccccc1)[C@H](O)C(=O)N1CSC(C)(C)[C@H]1C(=O)NCc1ccccc1C"
endpoint_result = 1.26


Query :: Dear colleague, I am looking for the recorded log10 of EC50 of the following molecule: `Cc1ccc(CSC[C@@H](NS(C)(=O)=O)C(=O)N[C@@H](Cc2ccccc2)[C@H](O)C(=O)N2CSC(C)(C)[C@H]2C(=O)NCc2ccccc2C)cc1`
Result :: 1.23

###

# subject_of_test: Protease (Human immunodeficiency virus 1)
# measurement_setup: at 1 nM
measured_parameter: inhibition (%)
Your answer should be a plain number; it is taken to be in %.

Sample answers from the record:
[[record]]
given_smiles = "CC(=O)N[C@H](CSc1ccc2ccccc2n1)C(=O)N[C@@H](Cc1ccccc1)[C@H](O)C(=O)N1CSC(C)(C)[C@H]1C(=O)NCc1ccccc1C"
subject_of_test = "Protease (Human immunodeficiency virus 1)"
measured_parameter = "inhibition"
endpoint_result = 27

[[record]]
given_smiles = "Cc1ccccc1CNC(=O)[C@H]1N(C(=O)[C@@H](O)[C@H](Cc2ccccc2)NC(=O)[C@@H](CCc2ccccc2)NS(C)(=O)=O)CSC1(C)C"
subject_of_test = "Protease (Human immunodeficiency virus 1)"
measured_parameter = "inhibition"
endpoint_result = 55

[[record]]
given_smiles = "COc1ccc(CSC[C@@H](NS(C)(=O)=O)C(=O)N[C@@H](Cc2ccccc2)[C@H](O)C(=O)N2CSC(C)(C)[C@H]2C(=O)NCc2ccccc2C)cc1"
subject_of_test = "Protease (Human immunodeficiency virus 1)"
measured_parameter = "inhibition"
endpoint_result = 77

[[record]]
given_smiles = "Cc1ccccc1CNC(=O)[C@H]1N(C(=O)[C@@H](O)[C@H](Cc2ccccc2)NC(=O)[C@@H](CS(=O)(=O)c2cccc3ccccc23)NS(C)(=O)=O)CSC1(C)C"
subject_of_test = "Protease (Human immunodeficiency virus 1)"
measured_parameter = "inhibition"
endpoint_result = 97

[[record]]
given_smiles = "CC(=O)N[C@H](CS(=O)(=O)c1ccc(Cl)cc1)C(=O)N[C@@H](Cc1ccccc1)[C@H](O)C(=O)N1CSC(C)(C)[C@H]1C(=O)NCc1ccccc1C"
subject_of_test = "Protease (Human immunodeficiency virus 1)"
measured_parameter = "inhibition"
endpoint_result = 80


Next:
Query :: Dear colleague, I am looking for the recorded inhibition of the following molecule: `CC(=O)N[C@H](CS(=O)(=O)Cc1ccc(C)cc1)C(=O)N[C@@H](Cc1ccccc1)[C@H](O)C(=O)N1CSC(C)(C)[C@H]1C(=O)NCc1ccccc1C`
Result :: 53

Data provenance: ChEMBL document CHEMBL1150285
